tested.system: CDK1 (cyclin B) (Homo sapiens (Human))
Sequence (P06493 whole entry): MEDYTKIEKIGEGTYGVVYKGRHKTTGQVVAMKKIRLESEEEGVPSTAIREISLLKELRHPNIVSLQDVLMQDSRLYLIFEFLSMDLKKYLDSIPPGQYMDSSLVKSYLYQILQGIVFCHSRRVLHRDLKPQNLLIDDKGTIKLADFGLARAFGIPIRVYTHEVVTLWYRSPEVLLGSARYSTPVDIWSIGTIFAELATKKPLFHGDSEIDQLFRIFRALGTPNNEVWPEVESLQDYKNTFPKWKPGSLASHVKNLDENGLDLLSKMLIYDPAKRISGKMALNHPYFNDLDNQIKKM
Sequence (P14635 whole entry partner): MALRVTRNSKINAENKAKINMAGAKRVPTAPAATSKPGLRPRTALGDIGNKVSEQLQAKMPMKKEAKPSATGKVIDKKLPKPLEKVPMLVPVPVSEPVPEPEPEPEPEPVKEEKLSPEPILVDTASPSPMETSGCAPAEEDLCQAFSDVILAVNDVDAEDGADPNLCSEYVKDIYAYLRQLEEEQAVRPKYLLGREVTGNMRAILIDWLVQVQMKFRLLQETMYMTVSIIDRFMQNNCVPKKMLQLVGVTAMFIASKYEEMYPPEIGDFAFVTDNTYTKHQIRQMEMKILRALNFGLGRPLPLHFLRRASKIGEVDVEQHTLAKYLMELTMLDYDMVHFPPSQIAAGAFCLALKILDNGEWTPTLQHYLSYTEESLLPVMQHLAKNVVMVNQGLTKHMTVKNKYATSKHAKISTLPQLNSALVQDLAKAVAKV
Structures can show the parent of a compound that is named as a salt.
Parameter class (string): assigned from measured IC50. Ranges: bin A (below 20 nM), bin B (20 nM to below 100 nM), bin C (100 nM or more)

compound: CC(C)N1CCOc2c(F)cc(-c3nc(Nc4ccc(N5CCC(N(C)C)CC5)cn4)ncc3F)cc21
group: bin B
//
compound: CC(C)N1CCOc2c(F)cc(-c3nc(Nc4cc(C5CCN(C)CC5)no4)ncc3F)cc21
group: bin A
//
compound: CC(C)N1CCOc2c(F)cc(-c3nc(Nc4ccc(N5CCNCC5)c(F)c4)ncc3F)cc21 [Compound 12, hydrochloride]
group: bin A
//
compound: CC(C)N1CCOc2c(F)cc(-c3nc(Nc4ccc(S(N)(=O)=O)cc4)ncc3F)cc21
group: bin A
//
compound: CC(C)N1CCOc2c(F)cc(-c3nc(Nc4cnn(C5CCN(C)CC5)c4)ncc3F)cc21
group: bin B
//
compound: CC(C)N1CCOc2c(F)cc(-c3nc(Nc4ccc(C5CCN(C)CC5)nc4)ncc3F)cc21
group: bin A
//
compound: CC(C)N1CCOc2c(F)cc(-c3nc(Nc4ccc(N5CCC(CN)CC5)cn4)ncc3F)cc21
group: bin C
//
compound: CCN1CCN(Cc2ccc(Nc3ncc(F)c(-c4cc(F)c5c(c4)N(C(C)C)CCO5)n3)nc2)CC1
group: bin C
//
compound: CC(C)N1CCOc2c(F)cc(-c3nc(Nc4ccc5c(c4)CCN(C(=O)CN(C)C)C5)ncc3F)cc21
group: bin A
//
compound: CC(C)N1CCOc2c(F)cc(-c3nc(Nc4cc(C5CCN(C)CC5)n[nH]4)ncc3F)cc21
group: bin B
//
compound: COCCNS(=O)(=O)c1ccc(Nc2ncc(F)c(-c3cc(F)c4c(c3)N(C(C)C)CCO4)n2)cc1
group: bin B
//
compound: Fc1cnc(Nc2ccc3c(n2)CCNC3)nc1-c1cc(F)c2c(c1)N(C1CCC1)CCO2
group: bin C
//
compound: CC(C)CN1CCOc2c(F)cc(-c3nc(Nc4ccc(C5CCN(C)CC5)cn4)ncc3F)cc21
group: bin C
//
compound: CC(C)N1CCOc2c(F)cc(-c3nc(Nc4ccc(C5CCN(C)CC5)cn4)ncc3F)cc21
group: bin B
//
compound: CC(C)N1CCOc2c(F)cc(-c3nc(Nc4ccc(N5CCC(O)CC5)cn4)ncc3F)cc21
group: bin C
